All figures here come from the RNAGym collection of RNA variant scans (doi:10.7554/elife.90254).

B1: OR4K15 (parent)
chain: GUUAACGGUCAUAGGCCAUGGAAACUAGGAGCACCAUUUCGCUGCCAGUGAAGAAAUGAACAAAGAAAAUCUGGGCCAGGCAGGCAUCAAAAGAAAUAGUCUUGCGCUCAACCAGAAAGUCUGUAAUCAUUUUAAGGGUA

Variants of: B1
testProtocol: self-cleavage, relative activity (ratio to wild type); higher = more cleavage; in vitro, sequencing; the parent is a self-cleaving ribozyme
Label YES when self-cleavage >= 0.7; otherwise NO.

Worked examples follow.
Check the entry A22G A27G : does self-cleavage equal or exceed 0.7?
YES

Tell me whether self-cleavage is at least 0.7 here: A18U A67G
YES

Does the variant U19C U102C have recorded self-cleavage that is 0.7 or more?
YES

Entry A23U A47U : is its self-cleavage no less than 0.7?
YES

Further cases:
Kindly determine if self-cleavage recorded for A11U U39C is above or exactly 0.7.
YES

Is reported self-cleavage greater than or equal to 0.7 here: C35U U122C
YES

Please indicate if the recorded self-cleavage for A27G G28A meets or exceeds 0.7.
YES

Threshold query (self-cleavage >= 0.7) on G53U U100C
YES

In plain terms: is recorded self-cleavage at least 0.7 for U108C A110G ?
NO

Reported self-cleavage reaches at least 0.7 for U97C U108A ?
NO

Reported self-cleavage at or above 0.7? U39C A59G
YES

Quick check: does A36G U38C have self-cleavage greater than or equal to 0.7?
YES

Hi, just wondering whether A24U U102C shows self-cleavage of 0.7 or higher.
YES
